Target: Gal4‐NOR‐1 (human NOR‐1 LBD) (Homo sapiens, UniProt Q92570)
Construct: coding for the hinge region and LBD of the canonical isoform of NOR‐1; expressed in transfected cells; host or cells: HEK293T
Sequence (Q92570 394-623 limits assumed): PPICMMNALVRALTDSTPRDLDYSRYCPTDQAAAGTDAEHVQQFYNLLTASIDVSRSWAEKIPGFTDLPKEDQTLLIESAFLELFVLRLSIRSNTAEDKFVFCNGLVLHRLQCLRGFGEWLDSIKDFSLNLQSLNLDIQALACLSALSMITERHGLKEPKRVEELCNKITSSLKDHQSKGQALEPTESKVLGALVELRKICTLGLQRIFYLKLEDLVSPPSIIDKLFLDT
Assay: Gal4 hybrid reporter gene assay for NOR‐1 activity in HEK293T cells
Format: cell-based
Conditions: Gal4‐NOR‐1, 100 μM
Protocol: The screening assay was based on the Gal4 hybrid system[13] and employed a chimeric receptor composed of the human NOR‐1 LBD and the Gal4 DNA binding domain from yeast. […] Hybrid reporter gene assays. […] Luminescence was measured with a Spark 10 M luminometer (Tecan Group AG, Mannedorf, Switzerland), firefly luciferase data were divided by Renilla luciferase data and multiplied by 1000 to obtain relative light units (RLU). […]

# Structure smiles string, activity on NOR‐1
records = [
    ("COc1ccc(N2CCNCC2)cc1", "inactive (100 μM)"),
    ("Oc1ccc(N2CCNCC2)cc1", "inactive (100 μM)"),
    ("CN1CCN(c2ccc(N)cc2)CC1", "inactive (100 μM)"),
]

* * *

Biological target: Gal4‐NOR‐1 (human NOR‐1 LBD) (Homo sapiens)
Construct: coding for the hinge region and LBD of the canonical isoform of NOR‐1; expressed in transfected cells; host or cells: HEK293T
Sequence (Q92570 394-623 limits assumed): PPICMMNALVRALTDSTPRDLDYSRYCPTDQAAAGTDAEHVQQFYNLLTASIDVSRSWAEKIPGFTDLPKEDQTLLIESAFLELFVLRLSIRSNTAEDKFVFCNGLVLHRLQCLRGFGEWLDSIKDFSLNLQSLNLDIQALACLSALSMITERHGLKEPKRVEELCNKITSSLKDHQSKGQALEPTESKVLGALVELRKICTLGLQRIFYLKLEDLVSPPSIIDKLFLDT
Test: Gal4 hybrid reporter gene assay for NOR‐1 activity in HEK293T cells
Format: cell-based
Details: Gal4‐NOR‐1

# Compound, Target or system, type of NOR‐1 modulation
measured = [
    ("COC(=O)c1c[nH]c2ccccc12 [compound 1]", "Gal4‐NOR‐1 (human NOR‐1 LBD) (Homo sapiens)", "inverse agonist"),
    ("CC(=O)N1CCN(c2ccc(O)cc2)CC1 [compound 2]", "Gal4‐NOR‐1 (human NOR‐1 LBD) (Homo sapiens)", "inverse agonist"),
    ("Nc1ccc(N2CCNCC2)cc1 [compound 8, 4‐aminophenylpiperazine]", "Gal4‐NOR‐1 (human NOR‐1 LBD) (Homo sapiens)", "weak agonists"),
    ("Clc1ccc(N2CCNCC2)cc1 [compound 6, 4‐chlorophenylpiperazine]", "Gal4‐NOR‐1 (human NOR‐1 LBD) (Homo sapiens)", "weak agonists"),
]

* * *

Biological target: Gal4‐NOR‐1 (human NOR‐1 LBD) (Homo sapiens, UniProt Q92570)
Construct: coding for the hinge region and LBD of the canonical isoform of NOR‐1; expressed in transfected cells; host or cells: HEK293T
Experiment: Gal4 hybrid reporter gene assay for NOR‐1 activity in HEK293T cells
Format: cell-based
Conditions: Gal4‐NOR‐1, remaining activity at maximum inverse agonist effect, n=4
Binary label based on remaining NOR‐1 activity with cut-off 50%: below gives condition met, not below gives condition not met.

# Compound, Label
records = [
    ("CC(=O)N1CCN(c2ccc(O)cc2)CC1", "condition not met"),
    ("COC(=O)c1c[nH]c2ccc(Br)cc12 [compound 19, Methyl 5‐bromoindole‐3‐carboxylate]", "condition met"),
    ("COC(=O)c1c[nH]c2ccc(OC)cc12", "condition met"),
    ("COC(=O)c1c[nH]c2ccccc12", "condition met"),
    ("COC(=O)c1c[nH]c2ccc(Cl)cc12", "condition met"),
]

Record COC(=O)c1c[nH]c2ccc(C)cc12 : is its remaining NOR‐1 activity strictly below 50%?
condition met
